Source of measurements: the RNAGym collection of RNA variant scans (doi:10.7554/elife.90254)

B1: OR4K15 (parent)
chain: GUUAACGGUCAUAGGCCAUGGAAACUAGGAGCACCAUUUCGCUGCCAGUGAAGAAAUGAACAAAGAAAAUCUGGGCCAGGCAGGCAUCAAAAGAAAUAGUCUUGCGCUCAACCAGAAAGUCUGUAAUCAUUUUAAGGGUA

Variants of: B1
Assay: self-cleavage, relative activity (ratio to wild type); higher = more cleavage; in vitro, sequencing; the parent is a self-cleaving ribozyme
Test readout: self-cleavage
Numbers only.

Known self-cleavage results, listed for orientation:
Mutation label	self-cleavage
U2C G119A	1.05
U139A	0.59
A23U U43C	1.22

Challenge: Given C16G A86G , state its recorded self-cleavage.
Response given: 0.51
